- experimental.details: MicroPET distribution of [^18F]-GA after PG polysaccharides intervention
- Format: in vivo, mice
- condition.context: male, Kunming, mouse, lungs, intravenous, mice, control group, Time(s) 1650; read-out: %ID/g of [^18F]-GA in the lungs, Con
- Protocol: The mice were grouped by weight and housed in cages of the climate control room (25°C), with a photoperiod 12:12-h. During feeding, mice were free to access food and water. Mice were fasted for 24 h before the experiment. The mice were anesthetized with 4% isoflurane while preparing for scanning ([Constantinescu et al., 2013b]; [Cui et al., 2017]). […]
measured.parameter: tissue uptake at 1650 s (%ID/g)
The reply should be a number in %ID/g, with the unit left off.

What does the data say about its tissue uptake at 1650 s? Entry: CC1(C)[C@@H](O)CC[C@]2(C)[C@H]3C(=O)C=C4[C@@H]5C[C@@](C)(C(=O)NCCCC[18F])CC[C@]5(C)CC[C@@]4(C)[C@]3(C)CC[C@@H]12 [[^18F]-GA, [^18F]-Glycyrrhetinic acid]
1.66

* * *

- experimental.details: MicroPET distribution of [^18F]-GA after PG polysaccharides intervention
- Type: in vivo, mice
- condition.context: male, Kunming, mouse, lungs, intravenous, mice, control group, Time(s) 60; read-out: %ID/g of [^18F]-GA in the lungs, Con
measured.parameter: tissue uptake at 60 s (%ID/g)
The reply should be a number in %ID/g, with the unit left off.

What does the data say about its tissue uptake at 60 s? Entry: CC1(C)[C@@H](O)CC[C@]2(C)[C@H]3C(=O)C=C4[C@@H]5C[C@@](C)(C(=O)NCCCC[18F])CC[C@]5(C)CC[C@@]4(C)[C@]3(C)CC[C@@H]12 [[^18F]-GA, [^18F]-Glycyrrhetinic acid]
8.86

* * *

- experimental.details: MicroPET distribution of [^18F]-GA after PG polysaccharides intervention
- Format: in vivo, mice
- condition.context: male, Kunming, mouse, lungs, po, mice, PG polysaccharides orally 1 h before [^18F]-GA, Time(s) 2700; read-out: %ID/g of [^18F]-GA in the lungs, OA
measured.parameter: tissue uptake at 1 h (%ID/g)
The reply should be a number in %ID/g, with the unit left off.

What does the data say about its tissue uptake at 1 h? Entry: CC1(C)[C@@H](O)CC[C@]2(C)[C@H]3C(=O)C=C4[C@@H]5C[C@@](C)(C(=O)NCCCC[18F])CC[C@]5(C)CC[C@@]4(C)[C@]3(C)CC[C@@H]12 [[^18F]-GA, [^18F]-Glycyrrhetinic acid]
3.54

* * *

- experimental.details: MicroPET distribution of [^18F]-GA after PG polysaccharides intervention
- Format: in vivo, mice
- condition.context: male, Kunming, mouse, lungs, intravenous, mice, control group, Time(s) 5100; read-out: %ID/g of [^18F]-GA in the lungs, Con
measured.parameter: tissue uptake at 5100 s (%ID/g)
The reply should be a number in %ID/g, with the unit left off.

What does the data say about its tissue uptake at 5100 s? Entry: CC1(C)[C@@H](O)CC[C@]2(C)[C@H]3C(=O)C=C4[C@@H]5C[C@@](C)(C(=O)NCCCC[18F])CC[C@]5(C)CC[C@@]4(C)[C@]3(C)CC[C@@H]12 [[^18F]-GA, [^18F]-Glycyrrhetinic acid]
1.04
